Attribute: IC50
Biological target: UniProt:P24530
Sequence (P24530 whole entry): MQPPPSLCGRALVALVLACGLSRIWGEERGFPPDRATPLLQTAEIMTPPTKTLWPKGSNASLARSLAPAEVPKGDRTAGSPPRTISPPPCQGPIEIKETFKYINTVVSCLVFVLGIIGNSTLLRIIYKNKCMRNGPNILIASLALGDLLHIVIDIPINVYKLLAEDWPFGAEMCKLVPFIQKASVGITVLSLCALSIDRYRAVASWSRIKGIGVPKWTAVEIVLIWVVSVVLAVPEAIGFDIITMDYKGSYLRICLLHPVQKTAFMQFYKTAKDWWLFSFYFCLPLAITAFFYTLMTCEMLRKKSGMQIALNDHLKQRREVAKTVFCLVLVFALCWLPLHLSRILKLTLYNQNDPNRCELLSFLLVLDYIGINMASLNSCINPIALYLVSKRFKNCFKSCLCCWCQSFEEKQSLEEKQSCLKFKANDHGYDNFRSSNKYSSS
Test: Binding affinity towards Endothelin B receptor in human girardi heart cell membranes

Below, 2 compounds whose answers are already recorded.
CCCCC(NC(=O)[C@@H](Cc1c(C#N)[nH]c2ccccc12)NC(=O)C(NC(=O)N1[C@H](C)CCC[C@@H]1C)C(C)C)C(=O)O (stereo partly drawn); 5 nM
CCCCC(NC(=O)[C@@H](Cc1c(Br)[nH]c2ccccc12)NC(=O)C(NC(=O)N1[C@H](C)CCC[C@@H]1C)C1CC1)C(=O)O (stereo partly drawn); 1.1 nM

Q: Lookup: IC50 / UniProt:P24530 / CSCCC(NC(=O)[C@@H](Cc1c(C)[nH]c2ccccc12)NC(=O)C(NC(=O)N1[C@H](C)CCC[C@@H]1C)C1CC1)C(=O)O (stereo partly drawn)
Result: 4 nM

----------
As a worked illustration, we turn to IC50 data collected for UniProt:Q29010.
Note: unit nM is implicit; provide only the numeric part.

Below, 2 compounds whose answers are already recorded.
CCCCC(NC(=O)[C@@H](Cc1c(CC)[nH]c2ccccc12)NC(=O)C(CC(C)C)NC(=O)N1[C@H](C)CCC[C@@H]1C)C(=O)O (stereo partly drawn); 180
CCCCC(NC(=O)[C@@H](Cc1c(C)[nH]c2ccccc12)NC(=O)C(NC(=O)N1[C@H](C)CCC[C@@H]1C)C1CC1)C(=O)O (stereo partly drawn); 5.7

Q: Requested field: IC50. Item: CC(C)CC(NC(=O)N1[C@H](C)CCC[C@@H]1C)C(=O)N[C@H](Cc1c(Br)[nH]c2ccccc12)C(=O)NC(Cc1c[nH]c2ccccc12)C(=O)O (stereo partly drawn)
Result: 6.7

----------
As a worked illustration, we turn to pIC50 data collected for Endothelin-1 receptor (Sus scrofa, UniProt Q29010).
Please treat pIC50 as minus the base-10 logarithm of the molar concentration.

Below, 2 molecules whose answers are already recorded.
CCCCC(NC(=O)[C@@H](Cc1c(Cl)[nH]c2ccccc12)NC(=O)C(NC(=O)N1[C@H](C)CCC[C@@H]1C)C1CC1)C(=O)O (some centres undefined); 8.03
Cc1[nH]c2ccccc2c1C[C@@H](NC(=O)C(NC(=O)N1[C@H](C)CCC[C@@H]1C)C1CC1)C(=O)NC(Cc1c[nH]cn1)C(=O)O (some centres undefined); 8.32

Q: Lookup: pIC50 / Endothelin-1 receptor (Sus scrofa, UniProt Q29010) / CCCCC(NC(=O)[C@@H](Cc1c(Cl)[nH]c2ccccc12)NC(=O)C(NC(=O)N1[C@H](C)CCC[C@@H]1C)C1CCCC1)C(=O)O (some centres undefined)
Result: 7.34

Q: Lookup: pIC50 / Endothelin-1 receptor (Sus scrofa, UniProt Q29010) / CCCCCC[C@@H](NC(=O)[C@@H](Cc1c(Br)[nH]c2ccccc12)NC(=O)C(CC(C)C)NC(=O)N1[C@H](C)CCC[C@@H]1C)C(=O)O (some centres undefined)
Result: 6.96

----------
Attribute: IC50
Target: UniProt:P24530
Test: Binding affinity towards Endothelin B receptor in human girardi heart cell membranes
Conditions: heart

Cc1[nH]c2ccccc2c1C[C@H]1NC(=O)[C@H](C2CC2)NC(=O)[C@@H](C2CCCC2)NC(=O)[C@@H]2CCCN2C(=O)[C@@H](CC(=O)O)NC1=O; 130 nM

Q: Requested field: IC50. Item: O=C(O)C[C@H]1NC(=O)[C@@H](Cc2c(Br)[nH]c3ccccc23)NC(=O)[C@H](C2CC2)NC(=O)[C@@H](C2CCCC2)NC(=O)[C@@H]2CCCN2C1=O
Result: 29 nM

----------
Target: Endothelin receptor type B (Sus scrofa)
Sequence (P35463 whole entry): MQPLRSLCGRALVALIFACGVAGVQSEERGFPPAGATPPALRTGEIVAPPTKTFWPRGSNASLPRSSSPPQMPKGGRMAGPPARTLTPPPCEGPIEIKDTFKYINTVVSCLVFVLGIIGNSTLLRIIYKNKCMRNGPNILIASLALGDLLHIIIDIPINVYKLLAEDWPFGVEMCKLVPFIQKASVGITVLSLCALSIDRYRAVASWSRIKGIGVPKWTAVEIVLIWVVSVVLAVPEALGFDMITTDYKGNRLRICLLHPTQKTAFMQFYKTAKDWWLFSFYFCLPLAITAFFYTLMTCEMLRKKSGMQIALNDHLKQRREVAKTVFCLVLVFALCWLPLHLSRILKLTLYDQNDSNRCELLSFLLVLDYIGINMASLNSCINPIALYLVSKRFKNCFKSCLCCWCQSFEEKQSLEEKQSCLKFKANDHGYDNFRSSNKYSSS
Assay: Binding affinity towards endothelin B receptor in porcine cerebellum membranes
measured property: pIC50
Please treat pIC50 as minus the base-10 logarithm of the molar concentration.

Cc1[nH]c2ccccc2c1C[C@H]1NC(=O)[C@H](C2CC2)NC(=O)[C@@H](C(C)C)NC(=O)[C@@H]2CCCN2C(=O)[C@@H](CC(=O)O)NC1=O; 6.57

Q: Lookup: pIC50 / Endothelin receptor type B (Sus scrofa) / CCCCC(NC(=O)[C@@H](Cc1c(C#N)[nH]c2ccccc12)NC(=O)C(NC(=O)N1[C@H](C)CCC[C@@H]1C)C(C)C)C(=O)O (stereo partly drawn)
Result: 8.64

Q: Lookup: pIC50 / Endothelin receptor type B (Sus scrofa) / Cc1[nH]c2ccccc2c1C[C@@H](NC(=O)C(CC(C)C)NC(=O)N1[C@H](C)CCC[C@@H]1C)C(=O)NC(Cc1c[nH]cn1)C(=O)O (stereo partly drawn)
Result: 7.00

Q: Lookup: pIC50 / Endothelin receptor type B (Sus scrofa) / CCCC(NC(=O)[C@@H](Cc1c(Br)[nH]c2ccccc12)NC(=O)C(CC(C)C)NC(=O)N1[C@H](C)CCC[C@@H]1C)C(=O)O (stereo partly drawn)
Result: 8.68

Q: Lookup: pIC50 / Endothelin receptor type B (Sus scrofa) / CCCCC(NC(=O)[C@@H](Cc1c(C)[nH]c2ccccc12)NC(=O)C(CC(C)C)NC(=O)N1[C@H](C)CCC[C@@H]1C)C(=O)O (stereo partly drawn)
Result: 7.89

Q: Lookup: pIC50 / Endothelin receptor type B (Sus scrofa) / CCCCC(NC(=O)[C@@H](Cc1c(Br)[nH]c2ccccc12)NC(=O)C(CC(C)C)NC(=O)N1CCCCC1)C(=O)O (stereo partly drawn)
Result: 6.96

Q: Lookup: pIC50 / Endothelin receptor type B (Sus scrofa) / CCCCC(NC(=O)[C@@H](Cc1c(Cl)[nH]c2ccccc12)NC(=O)C(NC(=O)N1[C@H](C)CCC[C@@H]1C)C1CC1)C(=O)O (stereo partly drawn)
Result: 8.89

Q: Lookup: pIC50 / Endothelin receptor type B (Sus scrofa) / CCCCC(NC(=O)[C@@H](Cc1c(Cl)[nH]c2ccccc12)NC(=O)C(NC(=O)N1[C@H](C)CCC[C@@H]1C)C(C)CC)C(=O)O (stereo partly drawn)
Result: 8.34

Q: Lookup: pIC50 / Endothelin receptor type B (Sus scrofa) / CCCCC(NC(=O)[C@@H](Cc1c(Cl)[nH]c2ccccc12)NC(=O)C(CCCC)NC(=O)N1[C@H](C)CCC[C@@H]1C)C(=O)O (stereo partly drawn)
Result: 8.21

----------
Biological target: Endothelin receptor type B (Sus scrofa, UniProt P35463)
Experiment: Binding affinity towards endothelin B receptor in porcine cerebellum membranes
pIC50: −log10 of the molar value.
Parameter threshold = 8. Response is Met when pIC50 meets or exceeds it, else Not met.

Consider the following illustrative entries.
CCCCC(NC(=O)[C@@H](Cc1c(C)[nH]c2ccccc12)NC(=O)C(NC(=O)N1[C@H](C)CCC[C@@H]1C)C1CC1)C(=O)O (stereo partly specified); Met
CC(C)CC(NC(=O)N1[C@H](C)CCC[C@@H]1C)C(=O)N[C@H](Cc1c(Br)[nH]c2ccccc12)C(=O)NC(Cc1c[nH]c2ccccc12)C(=O)O (stereo partly specified); Not met

Q: Textbook exercise: given the entry CC(C)CC(NC(=O)N1[C@H](C)CCC[C@@H]1C)C(=O)N[C@H](Cc1c(Br)[nH]c2ccccc12)C(=O)NC(Cc1cnc[nH]1)C(=O)O (stereo partly specified) , state whether its pIC50 is greater than or equal to 8.
Result: Not met

Q: Textbook exercise: given the entry CCCCC(NC(=O)[C@@H](Cc1c(Cl)[nH]c2ccccc12)NC(=O)C(CC(C)C)NC(=O)N1[C@H](C)CCC[C@@H]1C)C(=O)O (stereo partly specified) , state whether its pIC50 is greater than or equal to 8.
Result: Met
